In this section, each of the binders is paired with its reported pKd.
target: Ab0223; experiment: BLI 1-pt +indinavir
Sequence (VH, as listed by the source limits assumed, form in doubt, chain 1 of 2): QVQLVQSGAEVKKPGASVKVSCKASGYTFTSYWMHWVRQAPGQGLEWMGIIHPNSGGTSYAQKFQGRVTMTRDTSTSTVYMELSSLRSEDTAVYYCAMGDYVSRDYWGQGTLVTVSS
Sequence (VL, as listed by the source limits assumed, form in doubt, chain 2 of 2): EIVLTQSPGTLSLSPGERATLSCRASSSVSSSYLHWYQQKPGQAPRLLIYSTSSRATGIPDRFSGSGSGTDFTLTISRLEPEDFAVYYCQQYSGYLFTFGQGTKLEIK
The scale used: pKd is minus the common logarithm of the concentration in molar units.

# input Would you kindly share the measured pKd for Ab0948 (antibody, V domains shown) VH: EVQLVESGGGLVQPGGSLRLSCAASGFDFSSYSIHWVRQAPGKGLEWVASISPYYGSTYYADSVKGRFTISADTSKNTAYLQMNSLRAEDTAVYYCARYYEWYKYDLYLGSLGFDAWGQGTLVTVSS VL: DIQMTQSPSSLSASVGDRVTITCRASQSVSSAVAWYQQKPGKAPKLLIYSASSLYSGVPSRFSGSRSGTDFTLTISSLQPEDFATYYCQQGGYSLITFGQGTKVEIK ?
# output 8.14

# input Would you kindly share the measured pKd for Ab0944 (antibody, V domains shown) VH: EVQLVESGGGLVQPGGSLRLSCAASGFDFSSYSIHWVRQAPGKGLEWVASISPYYGSTYYADSVKGRFTISADTSKNTAYLQMNSLRAEDTAVYYCARYYEWYKYALYLGSLGFDYWGQGTLVTVSS VL: DIQMTQSPSSLSASVGDRVTITCRASQSVSSAVAWYQQKPGKAPKLLIYSASSLYSGVPSRFSGSRSGTDFTLTISSLQPEDFATYYCQQGGYSLITFGQGTKVEIK ?
# output 8.15

# input Would you kindly share the measured pKd for Ab0940 (antibody, V domains shown) VH: EVQLVESGGGLVQPGGSLRLSCAASGFDFSSYSIHWVRQAPGKGLEWVASISPYYASTYYADSVKGRFTISADTSKNTAYLQMNSLRAEDTAVYYCARYYEWYKYDLYLGSLGFDYWGQGTLVTVSS VL: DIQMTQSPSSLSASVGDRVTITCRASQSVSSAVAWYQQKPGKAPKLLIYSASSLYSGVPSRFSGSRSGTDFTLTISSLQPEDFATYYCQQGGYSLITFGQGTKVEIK ?
# output 8.00
